// ERK protein (Mus musculus) Kd records
Numbers only, in nM.

// below: answered compounds
* COc1cccc(F)c1CN1CCC[C@@H](NC(=O)N2CCc3[nH]nc(-c4ccncc4)c3C2)C1 | 0.15
* Cc1ccsc1CN1CCC[C@@H](NC(=O)N2CCc3[nH]nc(-c4ccncc4)c3C2)C1 | 0.25
* COc1cccc(F)c1CN1CCC[C@@H](NC(=O)N2CCc3[nH]nc(-c4ccc5nccn5c4)c3C2)C1 | 0.03

Turning now to a further compound:
Data point: `Cc1cc(-c2n[nH]c3c2CN(C(=O)N[C@@H]2CCCN(Cc4cccc5ccccc45)C2)CC3)ccn1` ; Kd = 0.4

----------
# assay-system: UniProtKB P63085
# experiment: Coupled MEK1/ERK2 IMAP assay or Active ERK2 IMAP assay
# Assay type: biochemical
# measurement-parameters: Table 1, class symbols, 30 μM ATP
pIC50: −log10 of the molar value.
Exercise: state measured pIC50 for each of the compounds provided.

• Cc1cc(-c2n[nH]c3c2CN(C(=O)N[C@H]2CC[C@H]4CC[C@@H]2N4Cc2ccccc2F)CC3)ccn1 [Compound 166] = 6.00 to 7.00

Batch request: pIC50 per item, same order as input.
1. Cn1cnc(CC(=O)N2CCc3[nH]nc(-c4ccncc4)c3C2)c1 [Compound 6]
2. Cc1ccccc1[C@@H]1CN(C)C[C@H]1NC(=O)N1CCc2[nH]nc(-c3ccc(F)cc3)c2C1 (racemic) [Compound 141]

1. 4.00 to 6.00
2. > 7.70

// for each compound below, give its pIC50
1. O=C(Cc1c(F)cccc1Cl)N1CCc2[nH]nc(-c3ccncc3)c2C1 [Compound 27]
2. O=C(N[C@@H]1CCC[C@H]1c1ccccc1)N1CCc2[nH]nc(-c3ccncc3)c2C1 (racemic) [Compound 143]
3. Cc1nc2ccc(-c3n[nH]c4c3CN(C(=O)N[C@@H]3CCCN(Cc5csc6ccccc56)C3)CC4)cc2s1 [Compound 174]
4. CC(C(=O)N1CCc2[nH]nc(-c3ccncc3)c2C1)c1ccccc1Cl (centres unmarked) [Compound 41]
5. O=C(CC1CCCNC1)N1CCc2[nH]nc(-c3ccncc3)c2C1 (centres unmarked) [Compound 51]

6.00 to 7.00
> 7.70
> 7.70
4.00 to 6.00
6.00 to 7.00

Would you mind giving pIC50 for every compound in the list below?
1. Cn1ncc2cc(-c3n[nH]c4c3CN(C(=O)NC3CCC5CCC3N5Cc3ccccc3F)CC4)ccc21 (centres unmarked) [Compound 140]
2. CN1C[C@@H](NC(=O)N2CCc3[nH]nc(-c4ccncc4)c3C2)[C@H](c2cccc(-c3ccccc3)c2)C1 (racemic) [Compound 169]
3. Cc1cc(-c2n[nH]c3c2CN(C(=O)NC2CC(C)CN(Cc4c(F)cccc4F)C2)CC3)ccn1 (centres unmarked) [Compound 89]

> 7.70
> 7.70
7.00 to 7.68

----------
Please provide measured pIC50 for the entries that follow.
# assay-system: Mouse ERK2 protein (Mus musculus (Mouse))
# Sequence (P63085 whole entry): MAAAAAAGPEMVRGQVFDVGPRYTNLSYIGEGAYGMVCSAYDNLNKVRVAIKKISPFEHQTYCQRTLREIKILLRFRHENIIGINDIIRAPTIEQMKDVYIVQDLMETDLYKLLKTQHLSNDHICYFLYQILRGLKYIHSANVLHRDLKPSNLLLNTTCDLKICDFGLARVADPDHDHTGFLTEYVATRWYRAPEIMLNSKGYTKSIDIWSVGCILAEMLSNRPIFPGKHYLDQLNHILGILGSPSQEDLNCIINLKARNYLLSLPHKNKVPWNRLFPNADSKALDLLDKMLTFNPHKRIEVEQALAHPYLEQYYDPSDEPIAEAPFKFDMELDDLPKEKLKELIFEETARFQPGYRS
# experiment: Coupled MEK1/ERK2 IMAP assay or Active ERK2 IMAP assay
# Type: biochemical
# measurement-parameters: Table 1, class symbols, 30 μM ATP
pIC50: −log10 of the molar value.

• Cc1nc2ccc(-c3n[nH]c4c3CN(C(=O)N[C@@H]3CCCN(Cc5ccccc5F)C3)CC4)cc2o1 = > 7.70
• CCn1cc(Cl)c(NC(=O)C2CCc3[nH]nc(-c4ccncc4)c3C2)n1 (centres unmarked) = 4.00 to 6.00
• Cc1cc(-c2n[nH]c3c2CN(C(=O)N[C@@H]2CCN(Cc4c(F)cccc4Cl)C2)CC3)ccn1 = 7.00 to 7.68
• O=C(C1CCCc2ccccc21)N1CCc2[nH]nc(-c3ccncc3)c2C1 (centres unmarked) = 4.00 to 6.00
• COc1cccc(F)c1CN1CCC(F)C(NC(=O)N2CCc3[nH]nc(-c4ccc5nccn5c4)c3C2)C1 (centres unmarked) = > 7.70

For every listed record, write down its pIC50.
1. Cc1cc(-c2n[nH]c3c2CN(C(=O)NC2(C)CCCN(Cc4csc5ccccc45)C2)CC3)ccn1 (centres unmarked)
2. Cc1nc2cc(-c3n[nH]c4c3CN(C(=O)N[C@@H]3CCCN(Cc5c(C)cccc5C)C3)CC4)ccc2s1
3. O=C(N[C@@H]1CCCN(Cc2c(F)cccc2F)C1)N1CCc2[nH]nc(-c3ccc4nccn4c3)c2C1

1: 6.00 to 7.00; 2: 7.00 to 7.68; 3: > 7.70
